The reported measurements were obtained from PubChem BioAssay (NCATS).

# PROCEDURE_TEXT: qHTS assay for cell viability of HEK293 cells (AID 743288); note: % is set by controls: 0 for no effect and ±100 for the full control effect; nearly all actives have a fitted effect of over 50% in size
# CONDITION_SET: ATP luminescence (CellTiter-Glo), 18 h; stronger effect = lower value
# Excerpt: National Center for Advancing Translational Sciences [NCATS] NIH Chemical Genomics Center [NCGC] U.S. Environmental Protection Agency [EPA] National Institutes of Environmental Health Sciences [NIEHS] National Toxicology Program [NTP] […] The CellTiter-Glo Luminescent Cell Viability Assay (Promega, Madison, WI) is a homogeneous method to determine the number of viable cells in culture based on quantitation of the ATP present, which signals the presence of metabolically active cells. […]
Records with an inconclusive call do not appear.
OBSERVATION_TYPE: max response (%)
Give a bare numeral; the unit % is implied.

See these solved cases before continuing.
COMPOUND	max response, %
Nc1ccc(Br)cc1	-7.62
C=CC(=O)OCC	-0.244
CNC(=O)Oc1ccccc1OC(C)C	-6.22
C=CCOC(=O)c1ccccc1N	8.68
N#Cc1c(Cl)cccc1Cl	0.0704
CCc1cccc(C)c1N(C(=O)CCl)C(C)COC (stereo not given)	-14.8

query: I'd like to know its max response. The compound in question is "CCN(CC)c1ccccc1"
result: -9.99

query: Query "CCOc1ccc(N)cc1" next
result: 7.24

query: Query O=S1OCC2C(CO1)C1(Cl)C(Cl)=C(Cl)C2(Cl)C1(Cl)Cl (stereo not given) next
result: -13.5

query: Query "Cc1ccc2ccccc2c1" next
result: 2.28

query: Query "CC(C)Nc1nc(Cl)nc(NC(C)C)n1" next
result: -5.95

query: Query "CCCCCCCCCc1ccc(O)cc1" next
result: -7.88

----------
# MEASURED_ON: Cytochrome P450 2D6 (Homo sapiens)
# PROCEDURE_TEXT: qHTS for inhibitors of CYP2D6 against the NCATS DSHEA and TCM libraries (AID 1919972)
# CONDITION_SET: CYP2D6 enzymatic inhibition, luminescence qHTS; series mostly up to 34.1 µM
# Description: Assay Development and Screening Technology Laboratory (ADST) National Center for Advancing Translational Sciences (NCATS), Rockville, MD National Institute of Health (NIH), Bethesda, Maryland Dietary Supplements and Natural Products have minor oversight of their safety and efficacy. […] Overall, we highlight four significant bioactivity profiles (measured by p-values) as examples of this prediction. […] 9; Read; Luminescence; ViewLux plate reader. […]
Inconclusive results are not listed. Active and inactive are the calls of the source. Calls come from the whole dose curve; as a rule, active = well fitted inhibition curve with a large enough effect; inconclusive = small, poorly fitted or top-dose-only effect; inactive = no such curve, though single readings can be large or run the other way.
The reply should be one of these categories: y = active, n = inactive

A selection of reference data follows.
COMPOUND	LABEL
COC1=CC(=O)OC(CCc2ccccc2)C1 (stereo unspecified)	n
COc1cc2c(cc1O)C[C@H]1c3c(cc(OC)c(O)c3-2)CCN1C	y
C=CCc1ccc2c(c1)OCO2	n

query: Answer briefly: the call reported for COc1cc2c(cc1O)CC1c3c(cc(O)c(OC)c3-2)CCN1C (stereo unspecified) in this assay.
result: y

query: Query "CC[C@@H]1CN2CC[C@]3(C(=O)Nc4ccccc43)[C@@H]2C[C@@H]1/C(=C\OC)C(=O)OC" next
result: n

query: Query COc1cc2c(cc1O)CC1NCCc3cc(OC)c(OC)c-2c31 (stereo unspecified) next
result: y

----------
# Test system: PC49
# PROCEDURE_TEXT: qHTS profiling for inhibitors of Plasmodium falciparum proliferation (AID 504749);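 note: 0% = DMSO vehicle and full inhibition = artemisinin control; nearly all actives have a fitted effect of over 60% in size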
# CONDITION_SET: P. falciparum in erythrocytes, SYBR Green DNA, 72 h; series mostly up to 28.7 µM
Results filed as inconclusive are left out. Calls of active or inactive are those of the source. Calls come from the whole dose curve; as a rule, active = well fitted inhibition curve with a large enough effect; inconclusive = small, poorly fitted or top-dose-only effect; inactive = flat fitted curve, though single readings scatter.
The reply should be one of these categories: active, inactive

A selection of reference data follows.
MOLECULE	MEASURED_ON	LABEL
C[C@]12CC[C@H](O)CC1=CCC1C2CC[C@]2(C)C(=O)CC[C@@H]12 (some centres not stated)	PC49	inactive
C[N+]1([O-])[C@@H]2CC[C@H]1CC(OC(=O)[C@@H](CO)c1ccccc1)C2 (some centres not stated)	PC49	inactive

query: Answer briefly: the call reported for "C[C@H](NC(C)(C)C)C(=O)c1cccc(Cl)c1" in this assay.
result: inactive

query: Query CN[C@@H](C)[C@H]1CC[C@@H](N)[C@@H](O[C@@H]2[C@@H](O)[C@@H](O[C@H]3OC[C@@](C)(O)[C@@H](NC)[C@@H]3O)[C@H](N)C[C@@H]2N)O1 (tested in a mixture with another compound) next
result: inactive

----------
# PROCEDURE_TEXT: Confirmatory qHTS for VERO E6 Cytotoxicity Assay: Counterscreen for SARS-CoV-2 CPE Assay (AID 1508605); note: nearly all actives have a fitted effect of over 60% in size
# CONDITION_SET: cell viability luminescence; series mostly up to 20 µM
Records with an inconclusive call do not appear. Activity calls are given as the source filed them. The call rests on the fitted dose curve.
The reply should be one of these categories: 1.0 (active), 0.0 (inactive)

COMPOUND	LABEL
CNC(=O)c1ccc2c(C(=Nc3cccc(CN(C)C)c3)c3ccccc3)c(O)[nH]c2c1	0.0
Nc1ncnc2c1c(-c1ccc(Oc3ccccc3)cc1)nn2[C@@H]1CCCNC1	1.0
CCCCNc1ncc2c(-c3ccc(CN4CCN(C)CC4)cc3)cn(C3CCC(O)CC3)c2n1 (stereo unspecified)	1.0
O=C(c1ccc(-c2ccc(Cl)cc2)o1)N(Cc1ccccn1)c1ccc(N2CCNCC2)cc1	1.0
Cc1ccc(NCCN(C)CCNc2ccnc3cc(Cl)ccc23)c2c(=O)c3ccccc3sc12	0.0

query: Answer briefly: the call reported for "CC(C)(C[C@@](O)(Cc1cc2ccncc2[nH]1)C(F)(F)F)c1cc(F)ccc1O" in this assay.
result: 0.0

----------
# PROCEDURE_TEXT: Cell Viability - LYMP2-018 (AID 985);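 note: compound exposure lasted 24 hr at 37 °C; nearly all actives have a fitted effect of over 50% in size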
# CONDITION_SET: LYMP2-018 lymphoblastoid cells, viability (qHTS); series mostly up to 92.2 µM
Inconclusive results are not listed. Calls of active or inactive are those of the source. The call rests on the fitted dose curve; in most records, active means well fitted cell-killing curve with a large enough effect; inconclusive means small, poorly fitted or top-dose-only effect; inactive means flat fitted curve, though single readings scatter.
The reply should be one of these categories: yes (1) for active, no (0) for inactive

A selection of reference data follows.
MOLECULE	LABEL
O=NN(c1ccccc1)c1ccccc1	no (0)
CCOP(=S)(OCC)SCSC(C)(C)C	no (0)

query: Answer briefly: the call reported for "C=CCOC(=O)c1ccccc1N" in this assay.
result: no (0)

query: Query "CCc1cccc(CC)c1N(COC)C(=O)CCl" next
result: yes (1)

query: Query "Brc1ccccc1" next
result: no (0)

query: Query "Nc1ccc(Br)cc1" next
result: no (0)

query: Query "c1nc[nH]n1" next
result: no (0)

query: Query ClC1=C(Cl)C2(Cl)C3C4CC(C5OC45)C3C1(Cl)C2(Cl)Cl (stereo not drawn) next
result: yes (1)

----------
# PROCEDURE_TEXT: Primary qHTS to identify inhibitors of SARS-CoV-2 cell entry (AID 1645846); note: nearly all actives have a fitted effect of over 45% in size
# CONDITION_SET: SARS-CoV-2 pseudovirus cell entry assay, luminescence; at 57.1 µM (top of the series) unless noted
# Text: Assay Provider: Wei Zheng, Ph.D. National Center for Advancing Translational Sciences, National Institute of Health, Rockville, MD. SARS-CoV-2 spike protein, within the viral envelope, mediates viral attachment and infection of host cells. The SARS-CoV-2 spike protein specifically binds to the host receptor ACE2 (Angiotensin-converting enzyme 2). […] 11. […] Read luminescence signal (Viewlux plate reader, PerkinElmer). […]
Results filed as inconclusive are left out.
OBSERVATION_TYPE: activity change, negative = inhibition (%)
Give a bare numeral; the unit % is implied.

COMPOUND	QUANTITY_UNIT	VALUE_REPORTED
CC(=O)OC1CC2CCC1(C)C2(C)C (stereo not given)	%	-37.9
CO/N=C(\C(=O)N[C@@H]1C(=O)N2C(C(=O)O)=C(CSc3cnns3)CS[C@H]12)c1csc(N)n1	%	-7.92
CC(C)(S)C(=O)N[C@@H](CS)C(=O)O	%	-16.1
C[C@H]1COCCN1c1cc(C2(S(=O)(=O)C3CC3)CC2)nc(-c2ccc(NC(=S)NCCO)cc2)n1	%	-79.3
C[C@]1(C(=O)N(CCCC(=O)O)Cc2cccc(Cl)c2)CCN1C(=O)c1csc2ccccc12	%	-20.2
CO/N=C(/C(=O)N[C@@H]1C(=O)N2C(C(=O)O)=CCS[C@H]12)c1csc(N)n1	%	-20.9
CC(C)(NS(=O)(=O)c1ccc2c(Cl)cnc(N=C(N)N)c2c1)C(=O)O	%	0.398
c1ccc2scnc2c1	%	-27.1

We now examine a further compound.
query: I'd like to know its activity change, negative = inhibition. The compound in question is "O=C(c1ccc(Nc2nc(C3CC3)cn3c(-c4cn[nH]c4)cnc23)c(F)c1)N1CCOCC1"
result: -58.9

----------
# PROCEDURE_TEXT: G06 Cancer Cell Toxicity qHTS against the NCATS CANVASS Library (AID 1347368); note: nearly all actives have a fitted effect of over 60% in size
# CONDITION_SET: G06 dog glioma cells, viability ATP luminescence, 72 h; series mostly up to 46.1 µM
Results filed as inconclusive are left out. Calls of active or inactive are those of the source. Calls come from the whole dose curve; as a rule, active = well fitted cell-killing curve with a large enough effect; inconclusive = small, poorly fitted or top-dose-only effect; inactive = flat fitted curve, though single readings scatter.
The reply should be one of these categories: label 1 = active, label 0 = inactive

A selection of reference data follows.
COMPOUND	LABEL
COC1C(O)C(C)OC(OC2C(Oc3cccc4c(O)c5c(=O)oc6ccc(C)c7c(=O)oc(c34)c5c67)OC(C)C(O)C2O)C1O (stereo not given)	label 1
C/C=C1/CN2CC[C@@]34c5ccccc5N(C)[C@@H]3[C@@H]2C[C@@H]1[C@H]4C(=O)OC	label 0
CO[C@H]([C@@H](C)[C@H]1O[C@]1(C)C[C@H](C)/C=C/C=C(\C)[C@H]1O[C@@H](CC(=O)O)CC[C@@H]1C)[C@@H](C)O	label 1
C/C=C(\C)C(=O)O[C@@H]1[C@@H](O)[C@@H]2O[C@H]3[C@H](O[C@@H](CCCCC)CCCCCCC(=O)CCC(=O)OC[C@@H](O2)[C@H]1OC(=O)/C=C/c1ccccc1)O[C@H](C)[C@H](OC(C)=O)[C@@H]3O	label 1

Read the next record carefully.
query: Answer briefly: the call reported for "C/C(=C\[C@H](C)C(=O)C[C@H](O)CC1CC(=O)NC(=O)C1)[C@@H]1OC(=O)/C=C/CC/C=C/C=C/[C@@H]1C" in this assay.
result: label 1
